The compounds below have reported Ki for Wee1-like protein kinase (Homo sapiens, UniProt P30291).
Number only, in pM; omit the unit.

# Structure smiles string, Ki, pM
records = [
    ("CN1Cc2cc(Nc3ncc4c(=O)n(-c5c(F)cccc5Cl)c5nccn5c4n3)ccc2C(C)(C)C1", 1100),
    ("CN1Cc2cc(Nc3ncc4c(=O)n(-c5c(Cl)cccc5Cl)cc(C(F)F)c4n3)ccc2C2(CC2)C1", 600),
]

Kindly review the next compound as well.
Write down the reported Ki of CN1Cc2cc(Nc3ncc4c(=O)c(-c5c(Cl)cccc5Cl)c[nH]c4n3)ccc2C2(CC2)C1 , test system: Wee1-like protein kinase (Homo sapiens, UniProt P30291).
Sequence (P30291 whole entry): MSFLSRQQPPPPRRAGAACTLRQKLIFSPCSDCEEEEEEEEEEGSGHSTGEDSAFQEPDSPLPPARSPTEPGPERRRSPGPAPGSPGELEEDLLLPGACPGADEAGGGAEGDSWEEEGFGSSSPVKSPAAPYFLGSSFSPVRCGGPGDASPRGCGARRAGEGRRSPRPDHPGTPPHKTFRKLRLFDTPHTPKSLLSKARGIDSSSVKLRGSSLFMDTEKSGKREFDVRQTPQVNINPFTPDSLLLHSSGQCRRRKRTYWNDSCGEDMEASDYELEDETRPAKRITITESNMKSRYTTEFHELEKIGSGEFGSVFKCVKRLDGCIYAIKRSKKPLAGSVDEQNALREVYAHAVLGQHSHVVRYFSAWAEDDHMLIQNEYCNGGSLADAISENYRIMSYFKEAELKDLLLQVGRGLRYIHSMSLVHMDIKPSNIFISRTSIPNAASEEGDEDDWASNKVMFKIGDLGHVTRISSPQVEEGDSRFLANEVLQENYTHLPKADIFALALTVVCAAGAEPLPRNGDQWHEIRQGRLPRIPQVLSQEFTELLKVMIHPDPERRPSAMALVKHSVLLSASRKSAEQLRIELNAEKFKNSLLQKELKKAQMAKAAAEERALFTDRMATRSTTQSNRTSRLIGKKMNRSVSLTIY
600

These entries and their values trace back to ChEMBL document CHEMBL4387719.
